Measured values drawn from patent US9170257B2 for this set.

Assay: Tissue distribution of curcumin and THC at necropsy 15 minutes post-infusion
Parameters: species or system Beagle dogs
Settings: both sexes, beagle, dog, in vivo, 10 mg/kg, Table 15, 2 hour infusion; −H3PO4; read-out: Tissue analysis, Pancreas

[
  {
    "COMPOUND": "COc1cc(CCC(=O)CC(=O)CCc2ccc(O)c(OC)c2)ccc1O [THC, tetrahydrocurcumin]",
    "concentration at 15 min, ng/g": 0.33
  }
]

* * *

Assay: in vivo
Format: in vivo, Beagle dogs
Settings: both sexes, beagle, dog, in vivo, iv, 10 mg/kg

[
  {
    "COMPOUND": "COc1cc(/C=C/C(=O)CC(=O)/C=C/c2ccc(O)c(OC)c2)ccc1O [Curcumin, reference compound]",
    "Vd [L/kg]": 12.7
  }
]
